// MFI lookup, one value per entry
Biological target: T1, human TMEM106B (human, UniProt Q9NUM4 2-274)
T1 construct: full-length, transiently expressed on HEK293 cells, or natively expressed on HeLa, U251 and A549 cells (the cell is named under assay); also the source of the Pepscan peptides; also called huTMEM106B; huTMEM
Test: FACS HeLa

Answered cases to consult:
1. TM-19 (antibody, V domains shown) VH: DVQLQQSGAELVRPGASVKLSCTASGFNIKDYYMYWVKQRPEQGLEWIGRIDPEDGDTENAPKFRGMATMTADTSSNTAYLQLNSLTSEDTAVYYCTTRIGNLYHVMDYWGHGTSVTVSS VL: DVLMTQTPLSLPVSLGDQASISCRSSQSIVHSNGNTYLEWYLQKPGQAPKLLIDKVFNRFSGVPDRFSGSGSGTDFTLKISRVEAEDLGVYYCFQGSHVPFTFGSGTKLEIK :: 2430 MFI
2. TM-29 (antibody, V domains shown) VH: QVQLRQSGAELVRPGASVKLSCKASGYTFTDYYINWVKQRPGQGLEWIARIYPGSGYTYYNEKFKGKATLTAEGSSNTAYMQLSSLTSEDSAVYFCANHYTNPFAYWGQGTLVTVSA VL: DIVMTQAAFSNPVTLGTSASISCRSSKSLLHYNGITYLYWYLQKPGQSPQLLIYQMSNLASGVPDRFSSSGSGTDFTLRISRVEAEDVGVYYCAQNLELPYTFGGGTKLEIK :: 1650 MFI

Query binder follows.
// lookup MFI for TM-49 (antibody, V domains shown, mouse IgG (hybridoma)) VH: QVQLQQPGAELVRPGSSVKLSCKASGYTFTRFWMHWVKQRPIQGLEWIGNIDPSDSQTHYNQKFKDKATLTVDKSSSTAYMQLSSLTSEDSAVYYCARLITVDYAMDYWGQGTSVTVSS VL: QIVLTQSPAIMSASPGEKVTISCSASSSVSYMYWYQQKPGSSPKPWIHRTSNLASGVPVRFSGSGSGTSYSLTISSMEAEDAATYYCQQYHSYPPTFGAGTKLELK 187 MFI
